Each record here notes measured remaining activity at 25 µM.
Target: WIZ protein (HiBit-WIZ fusion protein) (Homo sapiens, UniProt O95785+Q96SW2)
Construct: expressed in transfected cells
Sequence (O95785 whole entry, the tested form may be a part): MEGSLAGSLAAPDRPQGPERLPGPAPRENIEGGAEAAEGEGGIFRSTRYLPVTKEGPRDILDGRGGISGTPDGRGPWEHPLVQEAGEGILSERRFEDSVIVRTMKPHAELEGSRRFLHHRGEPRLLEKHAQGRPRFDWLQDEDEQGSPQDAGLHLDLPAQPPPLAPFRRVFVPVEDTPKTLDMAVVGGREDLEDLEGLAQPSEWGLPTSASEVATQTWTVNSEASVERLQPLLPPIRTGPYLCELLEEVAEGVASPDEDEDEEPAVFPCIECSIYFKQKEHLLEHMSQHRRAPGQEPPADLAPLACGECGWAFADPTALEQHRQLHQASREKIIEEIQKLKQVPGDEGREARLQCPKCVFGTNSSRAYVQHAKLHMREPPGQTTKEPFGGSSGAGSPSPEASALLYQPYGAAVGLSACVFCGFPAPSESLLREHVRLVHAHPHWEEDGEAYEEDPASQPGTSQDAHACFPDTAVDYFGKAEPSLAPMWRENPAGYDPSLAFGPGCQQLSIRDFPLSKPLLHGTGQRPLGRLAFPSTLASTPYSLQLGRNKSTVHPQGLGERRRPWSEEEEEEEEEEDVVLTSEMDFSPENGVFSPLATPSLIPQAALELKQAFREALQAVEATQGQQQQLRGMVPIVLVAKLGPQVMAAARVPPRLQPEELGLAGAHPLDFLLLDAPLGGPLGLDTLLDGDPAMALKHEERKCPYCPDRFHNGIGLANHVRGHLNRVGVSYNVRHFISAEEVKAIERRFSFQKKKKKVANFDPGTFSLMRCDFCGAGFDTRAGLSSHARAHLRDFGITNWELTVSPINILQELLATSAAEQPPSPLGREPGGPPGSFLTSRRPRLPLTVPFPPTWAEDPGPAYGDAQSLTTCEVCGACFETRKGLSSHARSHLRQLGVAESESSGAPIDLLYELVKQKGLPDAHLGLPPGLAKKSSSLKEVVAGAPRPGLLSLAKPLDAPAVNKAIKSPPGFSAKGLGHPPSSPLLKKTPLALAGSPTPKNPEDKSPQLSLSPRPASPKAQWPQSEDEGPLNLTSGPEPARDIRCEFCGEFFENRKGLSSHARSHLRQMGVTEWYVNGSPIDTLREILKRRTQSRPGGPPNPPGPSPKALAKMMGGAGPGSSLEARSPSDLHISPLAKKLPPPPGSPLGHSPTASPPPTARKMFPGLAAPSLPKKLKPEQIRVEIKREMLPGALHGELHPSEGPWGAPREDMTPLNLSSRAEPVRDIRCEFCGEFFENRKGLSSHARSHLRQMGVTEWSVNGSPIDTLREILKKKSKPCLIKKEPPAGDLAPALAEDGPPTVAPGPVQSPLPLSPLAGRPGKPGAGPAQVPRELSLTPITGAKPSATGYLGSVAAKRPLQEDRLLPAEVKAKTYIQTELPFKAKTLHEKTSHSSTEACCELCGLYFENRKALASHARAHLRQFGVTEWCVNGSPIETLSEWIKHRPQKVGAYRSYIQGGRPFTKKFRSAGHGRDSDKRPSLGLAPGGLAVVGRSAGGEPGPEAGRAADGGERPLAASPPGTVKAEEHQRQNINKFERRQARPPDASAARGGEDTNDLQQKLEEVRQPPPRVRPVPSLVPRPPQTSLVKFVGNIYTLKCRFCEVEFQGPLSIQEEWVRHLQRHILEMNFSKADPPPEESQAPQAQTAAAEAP
Sequence (Q96SW2 whole entry, the tested form may be a part): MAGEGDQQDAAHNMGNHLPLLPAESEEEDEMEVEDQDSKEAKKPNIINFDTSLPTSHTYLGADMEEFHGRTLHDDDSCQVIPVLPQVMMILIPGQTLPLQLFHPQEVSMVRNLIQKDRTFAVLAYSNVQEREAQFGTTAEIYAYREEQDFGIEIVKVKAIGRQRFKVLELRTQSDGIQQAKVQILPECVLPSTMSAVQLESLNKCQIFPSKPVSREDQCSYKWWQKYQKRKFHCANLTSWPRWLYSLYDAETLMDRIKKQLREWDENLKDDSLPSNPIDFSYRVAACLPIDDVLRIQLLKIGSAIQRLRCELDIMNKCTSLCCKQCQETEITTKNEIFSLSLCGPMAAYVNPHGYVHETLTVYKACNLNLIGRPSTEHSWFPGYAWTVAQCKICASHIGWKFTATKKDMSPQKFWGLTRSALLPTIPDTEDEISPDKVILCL
Sequence (Q16531 whole entry partner, the tested form may be a part): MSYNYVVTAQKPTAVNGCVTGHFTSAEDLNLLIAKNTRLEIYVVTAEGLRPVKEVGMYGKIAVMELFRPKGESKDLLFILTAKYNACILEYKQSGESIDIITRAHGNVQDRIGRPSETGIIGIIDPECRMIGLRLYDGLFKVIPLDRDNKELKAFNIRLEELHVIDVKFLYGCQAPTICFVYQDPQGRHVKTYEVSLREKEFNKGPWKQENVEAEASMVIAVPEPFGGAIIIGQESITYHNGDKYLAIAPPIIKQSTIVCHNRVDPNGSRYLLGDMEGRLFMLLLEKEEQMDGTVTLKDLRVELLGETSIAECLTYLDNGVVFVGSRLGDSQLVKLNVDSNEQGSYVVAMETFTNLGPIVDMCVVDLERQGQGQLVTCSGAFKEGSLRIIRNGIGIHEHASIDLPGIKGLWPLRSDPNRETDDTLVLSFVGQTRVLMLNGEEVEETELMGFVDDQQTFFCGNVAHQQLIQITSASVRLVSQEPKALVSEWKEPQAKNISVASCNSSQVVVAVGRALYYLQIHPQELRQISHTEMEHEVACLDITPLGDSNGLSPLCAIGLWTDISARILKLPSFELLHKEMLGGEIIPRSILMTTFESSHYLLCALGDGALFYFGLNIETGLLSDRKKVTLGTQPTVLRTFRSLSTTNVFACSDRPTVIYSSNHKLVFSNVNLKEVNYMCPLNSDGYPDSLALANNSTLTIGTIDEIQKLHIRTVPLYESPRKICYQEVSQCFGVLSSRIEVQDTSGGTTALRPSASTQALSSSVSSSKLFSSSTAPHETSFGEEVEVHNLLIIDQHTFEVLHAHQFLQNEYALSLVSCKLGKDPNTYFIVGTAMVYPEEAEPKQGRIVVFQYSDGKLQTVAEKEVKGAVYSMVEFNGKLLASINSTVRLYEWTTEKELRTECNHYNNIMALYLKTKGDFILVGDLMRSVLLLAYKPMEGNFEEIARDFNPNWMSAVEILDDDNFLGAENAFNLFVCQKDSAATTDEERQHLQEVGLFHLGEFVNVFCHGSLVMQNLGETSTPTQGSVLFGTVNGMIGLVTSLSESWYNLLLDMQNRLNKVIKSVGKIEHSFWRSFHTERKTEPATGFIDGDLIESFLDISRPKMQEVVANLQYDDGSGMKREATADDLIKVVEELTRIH
Assay: Quantification of WIZ protein levels in HiBit tag fusion protein assay (WIZ HiBit assay in 293T cells)
Format: cell-based
Settings: HEK-293T, DMSO-normalized, curve-fitted percentage of WIZ-HiBit remaining at 25 uM; 293T cells; read-out: WIZ Amax
Phrase the answer as number then unit, nothing more needed.

O=C1CCN(c2cnn3ccc(CC4CCN(CCC5CCCC5)CC4)cc23)C(=O)N1    16%
C[C@H]1CN(Cc2ccn3ncc(N4CCC(=O)NC4=O)c3c2)CCN1C1CC2(C1)CN(C)C2    24%
C[C@H]1CC(F)(Cc2ccn3ncc(N4CCC(=O)NC4=O)c3c2)CCN1C1COC1 (single isomer, unassigned)    27%

Moving on to another molecule below.
# query: remaining activity at 25 µM | item `O=C1CCN(c2cnn3ccc(CC4CCN(Cc5cccc(F)c5F)CC4)cc23)C(=O)N1` | system: WIZ protein (HiBit-WIZ fusion protein) (Homo sapiens, UniProt O95785+Q96SW2) 35%

====

Target: WIZ protein (HiBit-WIZ fusion protein) (Homo sapiens, UniProt O95785+Q96SW2)
Construct: expressed in transfected cells
Experiment: Quantification of WIZ protein levels in HiBit tag fusion protein assay (WIZ HiBit assay in 293T cells)
Assay type: cell-based
Conditions: HEK-293T, DMSO-normalized, curve-fitted percentage of WIZ-HiBit remaining at 25 uM; 293T cells; read-out: WIZ Amax
Each record here notes measured remaining activity at 25 µM.
Response body: numeric value in %, unit text excluded.

Worked examples follow.
COc1cn(-c2cnn3ccc(CN4CCN(CC(C)C)[C@@H](C)C4)cc23)c(=O)[nH]c1=O [Example 360]    76
C[C@H]1C[C@H](Cc2ccn3ncc(N4CCC(=O)NC4=O)c3c2)CCN1C[C@@H]1CCC(F)(F)C1 [Example 306]    16
C[C@H]1CN(Cc2ccn3ncc(N4CCC(=O)NC4=O)c3c2)CCN1CC1CCCCC1 [Example 192]    14
O=C1CCN(c2cnn3ccc(CC4CCN(Cc5cccc(C(F)(F)F)c5)CC4)cc23)C(=O)N1 [Example 25]    24

Moving on to another compound below.
# query: remaining activity at 25 µM | item CC(C)(C1CCC1)N1CCC(Cc2ccn3ncc(N4CCC(=O)NC4=O)c3c2)CC1 [Example 138] | system: WIZ protein (HiBit-WIZ fusion protein) (Homo sapiens, UniProt O95785+Q96SW2) 20

====

Biological target: WIZ protein (HiBit-WIZ fusion protein) (Homo sapiens, UniProt O95785+Q96SW2)
Construct: expressed in transfected cells
Experiment: Quantification of WIZ protein levels in HiBit tag fusion protein assay (WIZ HiBit assay in 293T cells)
Type: cell-based
Conditions: WIZ HiBit assay in 293T cells; 10-point, 5-fold dose response, highest concentration 25 μM, about 18 hours; read-out: WIZ AC50
Description: The HiBit system from Promega was used to develop high-throughput and quantitative assays to measure changes in WIZ protein levels in response to compounds. […] The complementary fragment of Nanoluciferase (known as LgBit, from Promega), was added to the HiBit tag to form an active Nanoluciferase enzyme whose activity can be precisely measured. In this way, the levels of a fusion protein with the HiBit tag can be quantified in cell lysates. […]
Each record here notes measured DC50.
Response body: numeric value in µM, unit text excluded.

Worked examples follow.
O=C1CCN(c2cnn3ccc(CC4CCCNCC4)cc23)C(=O)N1 (centres unmarked)    1.02
CC(C)CN1CC[C@@H](Cc2ccn3ncc(N4CCC(=O)NC4=O)c3c2)C[C@H]1C    0.077
CC(C)(F)CN1CCC(Cc2ccn3ncc(N4CCC(=O)NC4=O)c3c2)CC1    0.083

What does the data say about its DC50? Entry: `O=C1CCN(c2cnn3ccc(CC4CCN(S(=O)(=O)C5CCCCC5)CC4)cc23)C(=O)N1` 0.015

What does the data say about its DC50? Entry: `Cc1ccc(CN2CCC(Cc3ccn4ncc(N5CCC(=O)NC5=O)c4c3)CC2)cn1` 0.058

What does the data say about its DC50? Entry: `C[C@H]1CN(Cc2ccn3ncc(N4CCC(=O)NC4=O)c3c2)CCN1C(=O)C1CCC1` 1.07

What does the data say about its DC50? Entry: `C[C@H]1C[C@H](Cc2ccn3ncc(-n4ccc(=O)[nH]c4=O)c3c2)CCN1CC1CCC(F)(F)CC1` 0.024

What does the data say about its DC50? Entry: `CC(C)(CN1CCC(Cc2ccn3ncc(N4CCC(=O)NC4=O)c3c2)CC1)C(F)(F)F` 0.049

What does the data say about its DC50? Entry: `C[C@H]1C[C@H](Cc2ccn3ncc(N4CCC(=O)NC4=O)c3c2)CCN1S(=O)(=O)C1CC1` 0.031

====

Each record here notes measured Dmax at 25 µM.
Target: WIZ protein (HiBit-WIZ fusion protein) (Homo sapiens, UniProt O95785+Q96SW2)
Construct: expressed in transfected cells
Test: Quantification of WIZ protein levels in HiBit tag fusion protein assay (WIZ HiBit assay in 293T cells)
Format: cell-based
Settings: HEK-293T, 100 − Amax, at 25 uM; 293T cells; read-out: % degradation of WIZ (100 − Amax)
Experimental: The HiBit system from Promega was used to develop high-throughput and quantitative assays to measure changes in WIZ protein levels in response to compounds. […] The complementary fragment of Nanoluciferase (known as LgBit, from Promega), was added to the HiBit tag to form an active Nanoluciferase enzyme whose activity can be precisely measured. In this way, the levels of a fusion protein with the HiBit tag can be quantified in cell lysates. […]
Response body: numeric value in %, unit text excluded.

O=C1CCN(c2cnn3ccc(CC4CCN(Cc5cc(F)cc(C(F)(F)F)c5)CC4)cc23)C(=O)N1    66
O=C1CCN(c2cnn3ccc(CN4CCN5CCOC[C@H]5C4)cc23)C(=O)N1    55
COC[C@H]1CN(Cc2ccn3ncc(N4CCC(=O)NC4=O)c3c2)CCN1CC1CCCCC1    53

Moving on to another compound below.
# query: Dmax at 25 µM | item `O=C1CCN(c2cnn3ccc(CC4CCN(CCC5CCCCC5)CC4)cc23)C(=O)N1` | system: WIZ protein (HiBit-WIZ fusion protein) (Homo sapiens, UniProt O95785+Q96SW2) 89

====

Target: WIZ protein (HiBit-WIZ fusion protein) (Homo sapiens, UniProt O95785+Q96SW2)
Construct: expressed in transfected cells
Test: Quantification of WIZ protein levels in HiBit tag fusion protein assay (WIZ HiBit assay in 293T cells)
Format: cell-based
Conditions: HEK-293T, 100 − Amax, at 25 uM; 293T cells; read-out: % degradation of WIZ (100 − Amax)
PARAMETER: Dmax at 25 µM (%)
Response body: numeric value in %, unit text excluded.

Worked examples follow.
C[C@H]1C[C@H](Cc2ccn3ncc(N4CCC(=O)NC4=O)c3c2)CCN1CCC1CCOCC1 [Example 148]    86
O=C1CCN(c2cnn3ccc(CN4CCN(CC5CCOC5)CC4)cc23)C(=O)N1 (stereo not shown) [Example 177]    77
CCC(CC)N1CCC(Cc2ccn3ncc(N4CCC(=O)NC4=O)c3c2)CC1 [Example 20]    79

Moving on to another compound below.
What does the data say about its Dmax at 25 µM? Entry: C[C@H]1C[C@H](Cc2ccn3ncc(N4CCC(=O)NC4=O)c3c2)CCN1C(=O)N(C)C [Example 294] 81

====

Target: WIZ protein (HiBit-WIZ fusion protein) (Homo sapiens, UniProt O95785+Q96SW2)
Construct: expressed in transfected cells
Experiment: Quantification of WIZ protein levels in HiBit tag fusion protein assay (WIZ HiBit assay in 293T cells)
Format: cell-based
Conditions: HEK-293T, 100 − Amax, at 25 uM; 293T cells; read-out: % degradation of WIZ (100 − Amax)
Label TRUE when Dmax at 25 µM < 80%; otherwise FALSE.

Answered examples (6):
O=C1CCN(c2cnn3ccc(CN4CCN(Cc5ccncc5)CC4)cc23)C(=O)N1    TRUE
COc1ccccc1CN1CCC(Cc2ccn3ncc(N4CCC(=O)NC4=O)c3c2)CC1    TRUE
O=C1CCN(c2cnn3ccc(CC4CCN(C(=O)c5ccccc5)CC4)cc23)C(=O)N1    TRUE
O=C1CCN(c2cnn3ccc(CN4C[C@@H]5C[C@H]4CN5CC4CCCCC4)cc23)C(=O)N1    TRUE
O=C1CCN(c2cnn3ccc(CC4CCN(Cc5ccccc5F)CC4)cc23)C(=O)N1    TRUE
CC(C)S(=O)(=O)N1CCC(Cc2ccn3ncc(N4CCC(=O)NC4=O)c3c2)CC1    FALSE

Given `COCCN1CCC(Cc2ccn3ncc(N4CCC(=O)NC4=O)c3c2)CC1` , is recorded Dmax at 25 µM strictly lower than 80%? TRUE

Given `C[C@H]1CN(Cc2ccn3ncc(N4CCC(=O)NC4=O)c3c2)CCN1CC1CCCC1` , is recorded Dmax at 25 µM strictly lower than 80%? FALSE

Given C[C@@H]1CC(CN2CCN(Cc3ccn4ncc(N5CCC(=O)NC5=O)c4c3)C[C@@H]2C)C[C@H](C)O1 (stereo partly drawn) , is recorded Dmax at 25 µM strictly lower than 80%? FALSE

Given CCC(C)CN1CCC(Cc2ccn3ncc(N4CCC(=O)NC4=O)c3c2)CC1 (stereo not drawn) , is recorded Dmax at 25 µM strictly lower than 80%? FALSE

Given `COC(=O)N1CCC(Cc2ccn3ncc(N4CCC(=O)NC4=O)c3c2)CC1` , is recorded Dmax at 25 µM strictly lower than 80%? TRUE

Given `O=C1CCN(c2cnn3ccc(CC4CCN(Cc5cccc(C(F)(F)F)c5)CC4)cc23)C(=O)N1` , is recorded Dmax at 25 µM strictly lower than 80%? TRUE

Given `O=C1CCN(c2cnn3ccc(CC4CCN(Cc5ccc(F)cc5)CC4)cc23)C(=O)N1` , is recorded Dmax at 25 µM strictly lower than 80%? TRUE

Given `O=C1CCN(c2cnn3ccc(CC4(F)CCN(CC5CCC5)CC4)cc23)C(=O)N1` , is recorded Dmax at 25 µM strictly lower than 80%? TRUE

Given `O=C1CCN(c2cnn3ccc(CN4CCN(Cc5ccccc5)CC4)cc23)C(=O)N1` , is recorded Dmax at 25 µM strictly lower than 80%? TRUE

Given `CC(C)CCN1CCN(Cc2ccn3ncc(N4CCC(=O)NC4=O)c3c2)C[C@@H]1C` , is recorded Dmax at 25 µM strictly lower than 80%? FALSE

Given `O=C1CCN(c2cnn3ccc(CC4CCN(Cc5cccc(OC(F)(F)F)c5)CC4)cc23)C(=O)N1` , is recorded Dmax at 25 µM strictly lower than 80%? TRUE

Given `CC(C)CN1CCN(Cc2ccn3ncc(N4CCC(=O)NC4=O)c3c2)C[C@@H]1C` , is recorded Dmax at 25 µM strictly lower than 80%? FALSE

Given `CCCC(CCC)N1CCC(Cc2ccn3ncc(N4CCC(=O)NC4=O)c3c2)CC1` , is recorded Dmax at 25 µM strictly lower than 80%? FALSE

Given `O=C1CCN(c2cnn3ccc(CN4CCN(Cc5cscn5)CC4)cc23)C(=O)N1` , is recorded Dmax at 25 µM strictly lower than 80%? TRUE

Given `CC(C)CN1CCN(Cc2ccn3ncc(-n4cc(C5CC5)c(=O)[nH]c4=O)c3c2)C[C@@H]1C` , is recorded Dmax at 25 µM strictly lower than 80%? TRUE

Given `CC1(C)CN(Cc2ccn3ncc(N4CCC(=O)NC4=O)c3c2)CCN1CC1CCCCC1` , is recorded Dmax at 25 µM strictly lower than 80%? TRUE

Given `COc1cn(-c2cnn3ccc(CN4CCN(CC(C)C)[C@@H](C)C4)cc23)c(=O)[nH]c1=O` , is recorded Dmax at 25 µM strictly lower than 80%? TRUE
